- assay: amyloid nucleation score (Sup35N fusion, yeast selection) (log enrichment); library NNK2; higher = more nucleation; inactive = no reads after selection;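 also: zero at mode of non-aggregating sequences after 7 days selection at 30°C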
Is amyloid nucleation score at least 0.6? Then met. If not, not met.

MPAFWSWSERGLSVRILGPA = met
ASSTRRSRSFNIGILCMFRM = met

Task item: Hello, I need to know if `FTFIHFLCVSVHLLNSWS` has measured amyloid nucleation score not below 0.6. Thanks!
Reply: not met

Task item: Is reported amyloid nucleation score greater than or equal to 0.6 here: `SPFNRLHY`
Reply: not met

Task item: Form field: amyloid nucleation score at least 0.6? Entry: `SEFLRKVSFFLFYLFSSGHL`
Reply: not met

Task item: Can `IWTRLGYRQVPRYSAIFSAV` be said to have amyloid nucleation score at or above 0.6?
Reply: not met

Task item: Reported amyloid nucleation score at or above 0.6? `RVPFWFT`
Reply: not met

Task item: Confirm if amyloid nucleation score reported for the substance `YSFYAGFVNYIKVWNNRG` is 0.6 or above.
Reply: met

Task item: Textbook exercise: given the entry `HISYVNSSRL` , state whether its amyloid nucleation score is greater than or equal to 0.6.
Reply: met

Task item: Can `HGTATCVAILMNRL` be said to have amyloid nucleation score at or above 0.6?
Reply: met

Task item: API: above_or_equal(metric=amyloid nucleation score, cutoff=0.6) for item `LRRSGRSENSRRMTWVWW`
Reply: met

Task item: Hello, I need to know if `TVHFLHILIIFRSWSEGMPV` has measured amyloid nucleation score not below 0.6. Thanks!
Reply: not met

Task item: For this substance, is measured amyloid nucleation score 0.6 or higher? `DCLYGRFRHRHG`
Reply: met

Task item: Please tell me: is the substance `TFSCCACWGCFTRNV` at or over 0.6 in terms of amyloid nucleation score?
Reply: met

Task item: Does `TSLGGWVLERRCLPDAADMR` have a reported amyloid nucleation score of at least 0.6?
Reply: met

Task item: Evaluate `RELLSLSYSLVMCVVLRV` : amyloid nucleation score at minimum 0.6?
Reply: met

Task item: Is reported amyloid nucleation score greater than or equal to 0.6 here: `AVVIWAKML`
Reply: not met
